All values here come from patent US20260256915A1.

molecular target: T1, PRAME peptide on HLA-A*02:01 (human); assay: multimer staining
T1 peptide: SLLQHLIGL
propertyMeasured: binding result

INSERT INTO results (binder, measuredvalue) VALUES
  ('nwTCR-3271 (TCR, V domains shown) Valpha: DQQVKQNSPSLSVQEGRISILNCDYTNSMFDYFLWYKKYPAEGPTFLISISSIKDKNEDGRFTVFLNKSAKHLSLHIVPSQPGDSAVYFCAAKPDKLIFGTGTRLQVFP Vbeta: SAVISQKPSRDICQRGTSLTIQCQVDSQVTMMFWYRQQPGQSLTLIATANQGSEATYESGFVIDKFPISRPNLTFSTLTVSNMSPEDSSIYLCSVWGAGLAIYNEQFFGPGTRLTVL', 'recognises'),
  ('nwTCR-3173 (TCR, V domains shown) Valpha: SQQGEEDPQALSIQEGENATMNCSYKTSINNLQWYRQNSGRGLVHLILIRSNEREKHSGRLRVTLDTSKKSSSLLITASRAADTASYFCATYANDYKLSFGAGTTVTVRA Vbeta: EAQVTQNPRYLITVTGKKLTVTCSQNMNHEYMSWYRQDPGLGLRQIYYSMNVEVTDKGDVPEGYKVSRKEKRNFPLILESPSPNQTSLYFCASSAGTGGFVGYTFGSGTRLTVV', 'recognises'),
  ('nwTCR-2286 (TCR, V domains shown) Valpha: GQQLNQSPQSMFIQEGEDVSMNCTSSSIFNTWLWYKQDPGEGPVLLIALYKAGELTSNGRLTAQFGITRKDSFLNISASIPSDVGIYFCAGPEDDKIIFGKGTRLHILP Vbeta: DSGVTQTPKHLITATGQRVTLRCSPRSGDLSVYWYQQSLDQGLQFLIQYYNGEERAKGNILERFSAQQFPDLHSELNLSSLELGDSALYFCASSPWLQGGNEQFFGPGTRLTVL', 'recognises');
